MEASUREMENT DESCRIPTION: NCI Yeast Anticancer Drug Screen. Data for the cln2 rad14 strain (AID 165);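 further: 0% = growth equal to vehicle treated cultures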
TEST PARAMETERS: S. cerevisiae cln2 rad14 strain, at 50.0 µM (retest, dose inferred, filed as 5.0), hits give high values
About 79,000 compounds went through this panel and 15% of them were active in at least one assay; those are over-represented in the sample as a whole.

- COMPOUND: "COc1cc(C2c3cc4c(cc3C(OC3CCCCO3)C3COC(=O)C23)OCO4)cc(OC)c1OC (stereo not drawn)"
  growth inhibition [%]: -2
- COMPOUND: "CCCCCCCCCCCC(=O)OCCCCC"
  growth inhibition [%]: -4
- COMPOUND: "COC(=O)C1=Cc2cc3c(cc2[C@H](c2ccc4c(c2)OCO4)C1C(=O)OC)OCO3 (stereo partly drawn)"
  growth inhibition [%]: 40
- COMPOUND: "NC1=NC2=C(CCCC2)C(c2cccs2)S1 (stereo not drawn)"
  growth inhibition [%]: 49
- COMPOUND: "O=S(=O)(N/N=C/c1ccc(Cl)cc1Cl)c1ccccc1"
  growth inhibition [%]: -15
- COMPOUND: "Oc1ccc(Cc2cccc(Br)c2)c(O)c1"
  growth inhibition [%]: 99
- COMPOUND: "Cc1ccc(CN2CC(=O)N3Cc4ccccc4CN3C(=O)C2)cc1"
  growth inhibition [%]: -3
- COMPOUND: "CC1=CC(O)(c2ccc(-c3ccccc3Cl)cc2)OC1=O (stereo not drawn)"
  growth inhibition [%]: 87
- COMPOUND: "Oc1ccc(N(Cc2ccccc2)Cc2ccccc2)cc1"
  growth inhibition [%]: 93
- COMPOUND: "CCc1ccc(/C=C/c2ccc([N+](=O)[O-])cc2)nc1"
  growth inhibition [%]: 39
- COMPOUND: "CCc1ccc2c(-c3ccccc3)c3ccccc3c(-c3ccccc3)c2c1"
  growth inhibition [%]: -11
- COMPOUND: "FC(F)(F)c1[nH]nc(-c2ccc(Cl)cc2)c1N=NN1CCOCC1"
  growth inhibition [%]: 98
- COMPOUND: "CC(C)(C)OC(=O)N(CCCCNC(=O)OCc1ccccc1)CCCNC(=O)OCc1ccccc1"
  growth inhibition [%]: 18
- COMPOUND: "N#CC1=C(N)OC(c2ccccc2)=C(C#N)C1c1ccccc1 (stereo not drawn)"
  growth inhibition [%]: 99
- COMPOUND: "O=C(c1ccccc1)C(Br)C(Br)c1ccc(Cl)c(Cl)c1 (stereo not drawn)"
  growth inhibition [%]: 97
- COMPOUND: "O=C1C(=O)c2cc(Br)cc([N+](=O)[O-])c2-c2ccc(Br)cc21"
  growth inhibition [%]: 92
- COMPOUND: "CCCC(=O)OCc1cc(=O)n(C)c2c3c4c(cc12)c(C)cc(=O)n4CO3"
  growth inhibition [%]: 99
- COMPOUND: "CN(C(=O)c1cccs1)C(=S)N1CCN(c2ccccc2)CC1"
  growth inhibition [%]: 56
- COMPOUND: "O=C(CC(O)(CC(=O)OCc1ccccc1)C(=O)OCc1ccccc1)OCc1ccccc1"
  growth inhibition [%]: -10
- COMPOUND: "O=[N+]([O-])c1cc(C(F)(F)F)cc([N+](=O)[O-])c1CCl"
  growth inhibition [%]: 100
- COMPOUND: "Cc1ccc(NC(=O)Oc2ccc(C(C)(C)C)cc2Br)cc1NC(=O)Oc1ccc(C(C)(C)C)cc1Br"
  growth inhibition [%]: 11
- COMPOUND: "Oc1c(Cl)cc(Cl)c(Cc2c(Cl)cc(Cl)c(O)c2Cl)c1Cl"
  growth inhibition [%]: 97
- COMPOUND: "COCCOC1=C(Cl)C(=O)c2c(O)ccc(O)c2C1=O"
  growth inhibition [%]: 99
